biological target: T1, human 4-1BB on CHO-K1 cells (human, UniProt Q07011 24-255); assay: FACS, CHO-K1/hu 4-1BB cells
T1 construct: whole, on cells; also called CHO-K1/hu 4-1BB; CHO-K1/hu4-1BB
T1 sequence (Q07011 24-255): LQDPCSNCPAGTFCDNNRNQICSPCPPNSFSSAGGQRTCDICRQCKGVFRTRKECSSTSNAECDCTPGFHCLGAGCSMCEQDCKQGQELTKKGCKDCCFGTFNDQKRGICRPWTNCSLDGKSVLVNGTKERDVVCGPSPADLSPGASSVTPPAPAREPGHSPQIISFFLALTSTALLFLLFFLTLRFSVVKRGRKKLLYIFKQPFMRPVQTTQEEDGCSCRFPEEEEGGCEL
pEC50: −log10 of the molar value.
quantity-name: pEC50

*Q* pEC50 for PR001758 (antibody, human IgG1, V domains shown, HCAb, heavy chain only, human IgG1 Fc; also called 1016P0010B11) VH: EVQLLESGGGLVQLGGSLRLSCAASGFTFSRYAMTWVRQAPEKGLEWVSSISGSGDDTYYGDSVKGRFTISRDNSQNTVYLQMNSLRAEDTAVYFCAKEKAGTTGDYYYNVDVWGQGTTVTVSS ?
*A* > 9.52

Lab note: next binder to report on.
*Q* pEC50 for PR001830 (antibody, human IgG1, V domains shown, HCAb, heavy chain only, human IgG1 Fc; also called 1016P0014G8) VH: EVQLLESGGGLVQPGGSLRLSCTASGFTFSNYAMSWVRQAPEKGLEWVSSISGSGGSTFYADSVKGRFTISRDNSKNTLYLQMNSLRAEDTAVYFCAKEGSSETDDHYYNVDVWGQGTTVTVSS ?
*A* > 9.52
